system: CD4+ T cells; assay: Exogenous autologous healthy donor restimulation assay, TNFα and IFNγ production by CD4+ T cells; type: cell-based, human; set-up: unit not given here; conditions: maximum CD4+ T-cell response, donor independent; peptide pool 10 μg/mL, healthy donors
Classification field: enter Fulfilled for Frequency (TNFα+ IFNγ+ CD4 T cells) values not below 0.03, Not fulfilled for values below it.

| Sequence Data | Classification |
| --- | --- |
| AKFWSDISINRAPSFG [AS94, alternative splicing, TTLL7] | Fulfilled |
| YECTGCKTSFPHRSQS [FUS46, gene fusion GCNA-> LOC101059915] | Not fulfilled |
| RPGVFTDIL [FUS53, gene fusion PTPRG-> C3orf14] | Fulfilled |
| SSLQEHRKLLS [AS52, alternative splicing, PRDM5] | Not fulfilled |
| QIRVPSYSDEG [AS114, alternative splicing, CNTN5] | Not fulfilled |
| LTALLLLASTPTP [AS18, alternative splicing, FCRLB] | Not fulfilled |
| DLNQDGYNGNLNQSVEVIYVSSPLHKGDHACFKVFSMVCVGAVIITDF [AS64, alternative splicing, ITGA8] | Fulfilled |
| VAPSQSRQEECWRHKMSW [AS42, alternative splicing, LARP1B] | Not fulfilled |

[ask] Could you verify whether the entry SSVTTHSSGNLRESPIYH [FUS32, gene fusion GANC-> CAPN3] shows Frequency (TNFα+ IFNγ+ CD4 T cells) of no less than 0.03?
[reply] Not fulfilled
